Entries and their YAP1 (% UTC)
Test system: Yap1 mRNA
METHOD NOTES: Antisense inhibition of human Yap1 in SNU-449 cells by modified oligonucleotides, single dose (Example 5, RTS36584)
Assay type: cell-based
COND: Table 39; SNU-449 cells, 10,000 cells per well, free uptake, 2,000 nM oligonucleotide, approx. 48 hours; RTS36584; normalized to RIBOGREEN; Yap1 mRNA relative to untreated control
Strand notation (5' to 3'): a small letter for the sugar, then the base; units joined by * are phosphorothioate-linked, units joined directly phosphodiester-linked; [ ] holds rarer units or linkages, { } end groups; capitals alone tell only the bases. e = 2'-O-(2-methoxyethyl) (MOE); k = constrained ethyl (cEt); [5mC] = 5-methylcytosine; d = 2'-deoxy (DNA)
Report the value in % UTC with no unit label.

{"SUBSTANCE": "1198433 (kG*dT*dA*dA*dT*dA*dT*dT*dG*d[5mC]*dA*kA*eT*k[5mC]*eT*kG) [Compound 1198433]", "UNIT DESCRIPTOR": "% UTC", "YAP1 (% UTC)": 36}
{"SUBSTANCE": "1198381 (kT*dA*dG*dA*dG*dT*dA*dT*dG*dT*dG*kG*e[5mC]*kA*eA*kT; antisense) [Compound 1198381]", "UNIT DESCRIPTOR": "% UTC", "YAP1 (% UTC)": 19}
{"SUBSTANCE": "1198419 (kA*dT*dT*d[5mC]*dA*dG*dA*dT*dT*dT*dA*kG*eG*kA*eT*kG; antisense) [Compound 1198419]", "UNIT DESCRIPTOR": "% UTC", "YAP1 (% UTC)": 78}
{"SUBSTANCE": "1095379 (antisense kA*d[5mC]*dT*dG*dA*dG*dG*dT*dA*dT*dA*kA*e[5mC]*kT*eG*kG) [Compound 1095379]", "UNIT DESCRIPTOR": "% UTC", "YAP1 (% UTC)": 52}
{"SUBSTANCE": "1198388 (kT*dA*dT*dA*dA*d[5mC]*dT*dG*dG*dG*d[5mC]*kA*eA*kA*eT*kT; antisense) [Compound 1198388]", "UNIT DESCRIPTOR": "% UTC", "YAP1 (% UTC)": 90}

Now look at this one.
Task item: Quote Yap1 mRNA YAP1 (% UTC) for entry 1198407 (kT*dG*d[5mC]*dT*dT*dT*dG*dG*dA*dA*dG*kA*eT*k[5mC]*eT*kG; antisense) [Compound 1198407] .
Reply: 23
